experiment: protease stability score; higher = more stable; yeast display proteolysis, trypsin and chymotrypsin;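 note: relative to predicted unfolded state with 0 unfolded-like and 1 meaning tenfold more protease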
endpoint name: protease stability score
One number for each entry.

DTEDHLSHRVLEYHQEVEKTGDWHELFNNIDPHARMSVGDKRYHGMESMSKWLSRIKNAKIDEEHIEIQGNKIILHGTINVDGVRIESIILSLKVDGRWLRKEVRFH = 0.19
NEDEDKMKEWIETLHKSLETGDEKTLSKLFDPRVQYDIGDKKYHGWRHYLELILRIDHERREIHHVEVVNGRVEIDVRVHIHINGQDYEKKTILHVEKIDGKWLNKKVQIV = 1.16
DEDKEDLDDWFKRWEEALRTGDEKTLLRLMDPDTRLIFENHERHGMEEIFDMLHKHLNRVDHIHDFILRRDDSQGDKVRYDGQEDGIVDGVRDILKVIIYMIKIDGRWLMEELEFH = 1.26
DEEDEMAISLAKLFVDDLMTGNWRSLQHLLDPHTRLHVGDKEHHGRQKSVEWLKDLVRRIDHLEMDIHRLDVQGEKAESETESNVNIGDKEVRYHMELIILVVNGRVKEIEIRLG = 0.941
SEDEKEDHELSRHVIETLKTGDWELLSELADPHVRLKVNGKTYIGRELFTETVRRLLDRFKNMTLKIEDIKTVDGRLEIHIFLIVGDKFFELIIIATKVDGRWFEEEMHVHHS = 0.915

API: the following record is the query input.
For record SEDEEFAKRFFEILVHYHKTGDWEKRMKMADPNTRSDINGVHFHGREDIYRFEDELWREMGIDHVEFHVRDSDIQGDKLHLHTQVIIHVGNKHIELDERMILLKFNGQWVLESLEVK the listed protease stability score is 1.32

---

test: protease stability score; higher = more stable; yeast display proteolysis, trypsin and chymotrypsin;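 note: relative to predicted unfolded state with 0 unfolded-like and 1 meaning tenfold more protease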
Mark -1 for protease stability score values under 1, and 1 for everything at or above.

[in] Hello, I need to know if DEDKKIWKHWLEIFVRWFLTGDFDKLRENADPNARSDINGKELHGMETFVEAMRELGFKHVEIHDVHIQGNKVHLDTRVLFDGQHHTTHLHVHIVNGRLKEISIEIR has measured protease stability score not below 1. Thanks!
[out] 1

---

assay: protease stability score; higher = more stable; yeast display proteolysis, trypsin and chymotrypsin;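 note: relative to predicted unfolded state with 0 unfolded-like and 1 meaning tenfold more protease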
Mark criterion not met for protease stability score values under 2, and criterion met for everything at or above.

These solved cases illustrate the format of a correct answer.
SEDEEEIKTTFENLDRSIRTGDEDHVRKLADPTMRLDWNGQEFHGREWFSKHLSEFVKRADHFEIRLHDLDMVNGKLHIDGQLILIINGRTQILKLHLVFIKVDGRWILDNVQVN = criterion not met
SEDDERMERLTRILLEALETGDEDALRELIDPNARVDVNGVRDHGWKEVRKLLKELGVDHIKIHDHHIQGEKSRIDGEIHFNGKSERVTILWIMINGRVKFMSVKHT = criterion not met
DEDEKKLEHHLRTYEEALRTGDEELNHRLADPNTKVDVDGRYIHGRDFWREIMNQWRFKEMRFREIHLQGDKANVDTEVNIDVNGREMRTESHIISIKIDGRWMIKEVRFR = criterion not met
SEEEESERKVLHKFTEAIRTGDEHTLENLIDPNVKIDAENRSHHGMEDWLKWLMELRRRADHIDFRIHSIHTQGDKLHVHSEIIVVQGDKHIHIEISMIINKVNGRWHIHHIELR = criterion not met

[in] Hello, I need to know if DETRETLERFWHILVRAEKTGDERIFYEMLDPNAQLNVNGRTFHGREILVKIFHEWRVHDSEIREIDIQGDKVDMHVHSDIQVGDKRIRTDMRIIMVKIDGKWLIRTLKVE has measured protease stability score not below 2. Thanks!
[out] criterion met

[in] Hello, I need to know if SEEEKWAELALEETLRHLKTGDPRVLLELADPNVKLDVNGREYHGREVFLNFIEEFREKFKNITIEVKDRDVVNGRLITHLRLIVNGKEERVHMRSHKVDGQWVLDSVKIE has measured protease stability score not below 2. Thanks!
[out] criterion not met
